Data provenance is patent US20260242485A1.

molecular target: T1, cynomolgus CD16 expressed on CHO-K1 cells (cynomolgus, UniProt Q8SPW2 17-254); experiment: flow cytometry, CHO-K1-cyno CD16 cells, geometric mean
T1 construct: whole, on cells; also called cyno CD16; CHO-K1-cynoCD16
T1 sequence (Q8SPW2 17-254): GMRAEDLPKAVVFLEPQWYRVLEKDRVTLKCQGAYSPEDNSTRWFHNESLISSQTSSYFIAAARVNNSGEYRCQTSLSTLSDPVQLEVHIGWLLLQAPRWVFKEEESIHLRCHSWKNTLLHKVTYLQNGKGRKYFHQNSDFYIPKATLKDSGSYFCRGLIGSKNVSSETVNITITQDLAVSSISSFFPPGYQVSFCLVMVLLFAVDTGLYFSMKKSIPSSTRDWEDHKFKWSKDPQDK
property: EC50 (read off the curve)

# input // fetch EC50 (read off the curve) given entry 45H6E8-z19 (antibody, human IgG1, V domains shown, Human IgG1 LALAPG constant region; also called HU-VH1-6 / HU-VL1-3) VH: QVQLVQSGAEVKKPGASVKVSCKVSGYTLTDYYMQWVRQAPGKGLEWIGWIDPENGDTEYAPKFQGRVTMTADTSTDTAYMELSSLRSEDTAVYYCTTGGNYVDWGQGTTVTVSS VL: DIQMTQSPSFLSASVGDRVTITCKASQNVGTAVAWYQQKPGKAPKLLIYSASNRYTGVPDRFSGSGSGTDFTLTISSLQPEDFATYFCQQYSSYPLLTFGQGTRLEIK
# output ~0.7 nM

Please turn your attention to the following entry.
# input Return reported EC50 (read off the curve). Input binder: 45H6E8-z20 (antibody, human IgG1, V domains shown, Human IgG1 LALAPG constant region; also called HU-VH1-7 / HU-VL1-3) VH: QVQLVQSGAEVKKPGASVKVSCKVSGYTLTDYYMQWVRQAPGKGLEWMGWIDPENGDTEYAPKFQGRATMTADTSTDTAYMELSSLRSEDTAVYYCTTGGNYVDWGQGTTVTVSS VL: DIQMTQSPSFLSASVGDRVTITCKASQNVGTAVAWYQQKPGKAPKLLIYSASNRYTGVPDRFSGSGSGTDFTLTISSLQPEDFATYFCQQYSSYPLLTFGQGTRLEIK
# output ~0.8 nM
